experiment.description: Evaluation of light fastness-1 (OD value of printed portion after 100 hours xenon fadeometer)
Type: physicochemical
cond: ink prepared as in Example 1 from the salt named in the row; OD value of printed portion after 100 hours xenon fadeometer
readout.kind: (A)-1 light fastness-1

>>> result_value("C[N+](C)(C)C.C[N+](C)(C)C.C[N+](C)(C)C.C[N+](C)(C)C.Cc1c(N=Nc2cc(C(=O)[O-])ccc2C(=O)[O-])c(O)n(CCNc2nc(Cl)nc(NCCn3c(O)c(N=Nc4cc(C(=O)[O-])ccc4C(=O)[O-])c(C)c(C#N)c3=O)n2)c(=O)c1C#N")
"⊚"
>>> result_value("Cc1c(N=Nc2cc(C(=O)O)ccc2C(=O)O)c(O)n(CCCCCCNc2nc(Cl)nc(NCCCCCCn3c(O)c(N=Nc4cc(C(=O)O)ccc4C(=O)O)c(C)c(C#N)c3=O)n2)c(=O)c1C#N")
"⊚"
>>> result_value("CCc1c(N=Nc2cc(C(=O)O)ccc2C(=O)O)c(O)n(CCn2c(=O)c3cc4c(=O)n(CCn5c(O)c(N=Nc6cc(C(=O)O)ccc6C(=O)O)c(CC)c(C#N)c5=O)c(=O)c4cc3c2=O)c(=O)c1C#N")
"⊚"

====

experiment.description: Solubility in water of the salt
cond: % by weight
For each entry below, report its Solubility in water value.

Problem: # lookup: Solubility in water of Cc1c(N=Nc2cc(C(=O)[O-])ccc2C(=O)[O-])c(O)n(CCNc2nc(Cl)nc(NCCn3c(O)c(N=Nc4cc(C(=O)[O-])ccc4C(=O)[O-])c(C)c(C#N)c3=O)n2)c(=O)c1C#N.[K+].[K+].[K+].[K+] [potassium salt of compound No. 245]
Result: ≥ 3%

Problem: # lookup: Solubility in water of "C[N+](C)(C)C.C[N+](C)(C)C.C[N+](C)(C)C.C[N+](C)(C)C.Cc1c(N=Nc2cc(C(=O)[O-])ccc2C(=O)[O-])c(O)n(CCNc2nc(Cl)nc(NCCn3c(O)c(N=Nc4cc(C(=O)[O-])ccc4C(=O)[O-])c(C)c(C#N)c3=O)n2)c(=O)c1C#N"
Result: ≥ 5%

Problem: # lookup: Solubility in water of Cc1c(N=Nc2cc(C(=O)[O-])ccc2C(=O)[O-])c(O)[nH]c(=O)c1C#N.[K+].[K+] [potassium salt of compound No. 11]
Result: ≥ 3%

Problem: # lookup: Solubility in water of "C[N+](C)(C)C.C[N+](C)(C)C.Cc1c(N=Nc2cc(C(=O)[O-])ccc2C(=O)[O-])c(O)[nH]c(=O)c1C#N"
Result: ≥ 3%

====

experiment.description: Evaluation of moisture resistance (image-recorded paper at 40° C. and humidity 85%, visual observation)
Assay type: physicochemical
cond: image-recorded paper at 40° C. and humidity 85%, visually observed
readout.kind: (B) moisture resistance

Study these solved cases before continuing.
>>> result_value("Cc1c(N=Nc2c(C(=O)O)cccc2C(=O)O)c(O)[nH]c(=O)c1C#N")
"Δ"
>>> result_value("Cc1c(N=Nc2cc(Cl)cc(C(=O)O)c2C(=O)O)c(O)[nH]c(=O)c1C#N")
"◯"
>>> result_value("N#Cc1c(-c2ccccc2)c(N=Nc2cc(C(=O)O)ccc2C(=O)O)c(O)n(CCNc2nc(Cl)nc(NCCn3c(O)c(N=Nc4cc(C(=O)O)ccc4C(=O)O)c(-c4ccccc4)c(C#N)c3=O)n2)c1=O")
"⊚"
>>> result_value("Cc1c(N=Nc2cc(C(=O)O)ccc2C(=O)O)c(O)n(CCNC(=O)c2cc(C(=O)O)c(C(=O)NCCn3c(O)c(N=Nc4cc(C(=O)O)ccc4C(=O)O)c(C)c(C#N)c3=O)cc2C(=O)O)c(=O)c1C#N")
"⊚"
>>> result_value("Cc1c(N=Nc2cc(C(=O)O)ccc2C(=O)O)c(O)n(CCNc2nc(Cl)nc(NCCn3c(O)c(N=Nc4cc(C(=O)O)ccc4C(=O)O)c(C)c(C#N)c3=O)n2)c(=O)c1C#N")
"⊚"

// next entry
Problem: # lookup: (B) moisture resistance of "CCc1c(N=Nc2cc(C(=O)O)ccc2C(=O)O)c(O)n(CCNc2nc(Cl)nc(NCCn3c(O)c(N=Nc4cc(C(=O)O)ccc4C(=O)O)c(C(F)(F)F)c(C#N)c3=O)n2)c(=O)c1C#N"
Result: ⊚

====

experiment.description: Evaluation of moisture resistance (image-recorded paper at 40° C. and humidity 85%, visual observation)
Assay type: physicochemical
cond: image-recorded paper at 40° C. and humidity 85%, visually observed
readout.kind: (B) moisture resistance

Study these solved cases before continuing.
>>> result_value("N#Cc1c(-c2ccccc2)c(N=Nc2cc(C(=O)O)ccc2C(=O)O)c(O)n(CCNC(=O)c2cc(C(=O)O)c(C(=O)NCCn3c(O)c(N=Nc4cc(C(=O)O)ccc4C(=O)O)c(-c4ccccc4)c(C#N)c3=O)cc2C(=O)O)c1=O")
"⊚"
>>> result_value("Cc1c(N=Nc2cc(C(=O)O)ccc2C(=O)O)c(O)n(CCCCCCNC(=O)c2cc(C(=O)NCCCCCCn3c(O)c(N=Nc4cc(C(=O)O)ccc4C(=O)O)c(C)c(C#N)c3=O)c(C(=O)NCCn3c(O)c(N=Nc4cc(C(=O)O)ccc4C(=O)O)c(C)c(C#N)c3=O)cc2C(=O)NCCCCCCn2c(O)c(N=Nc3cc(C(=O)O)ccc3C(=O)O)c(C)c(C#N)c2=O)c(=O)c1C#N")
"⊚"
>>> result_value("CCc1c(N=Nc2cc(C(=O)O)ccc2C(=O)O)c(O)n(CCNc2nc(Cl)nc(NCCn3c(O)c(N=Nc4cc(C(=O)O)ccc4C(=O)O)c(CC)c(C#N)c3=O)n2)c(=O)c1C#N")
"⊚"
>>> result_value("CCc1c(N=Nc2cc(C(=O)O)ccc2C(=O)O)c(O)n(CCNC(=O)c2cc(C(=O)NCCn3c(O)c(N=Nc4cc(C(=O)O)ccc4C(=O)O)c(CC)c(C#N)c3=O)c(C(=O)O)cc2C(=O)O)c(=O)c1C#N")
"⊚"
>>> result_value("Cc1c(N=Nc2cccc(C(=O)O)c2C(=O)O)c(O)n(CCCC(=O)O)c(=O)c1C#N")
"◯"
>>> result_value("Cc1c(N=Nc2cc(S(=O)(=O)O)c(C(=O)O)cc2C(=O)O)c(O)[nH]c(=O)c1C#N")
"Δ"
>>> result_value("Cc1c(N=Nc2cc(C(=O)O)ccc2C(=O)O)c(O)n(Cc2cc(S(=O)(=O)O)cc(S(=O)(=O)O)c2)c(=O)c1C#N")
"◯"

// next entry
Problem: # lookup: (B) moisture resistance of "C[N+](C)(C)C.C[N+](C)(C)C.Cc1c(N=Nc2cc(C(=O)[O-])ccc2C(=O)[O-])c(O)[nH]c(=O)c1C#N"
Result: ο

====

experiment.description: Evaluation of light fastness-2 (OD value of printed portion after 400 hours xenon fadeometer)
Assay type: physicochemical
cond: ink prepared as in Example 1 from the salt named in the row; OD value of printed portion after 400 hours xenon fadeometer
readout.kind: (A)-2 light fastness-2

Study these solved cases before continuing.
>>> result_value("Cc1c(N=Nc2cccc(C(=O)O)c2C(=O)O)c(O)n(CS(=O)(=O)O)c(=O)c1C#N")
"◯"
>>> result_value("CCOC(=O)Cc1c(N=Nc2cc(C(=O)O)ccc2C(=O)O)c(O)n(CCNc2nc(Cl)nc(NCCn3c(O)c(N=Nc4cc(C(=O)O)ccc4C(=O)O)c(CC(=O)OCC)c(C#N)c3=O)n2)c(=O)c1C#N")
"◯"
>>> result_value("Cc1c(N=Nc2cc(C(=O)O)ccc2C(=O)O)c(O)n(CCCCCCNC(=O)c2cc(C(=O)O)c(C(=O)NCCCCCCn3c(O)c(N=Nc4cc(C(=O)O)ccc4C(=O)O)c(C)c(C#N)c3=O)cc2C(=O)O)c(=O)c1C#N")
"◯"
>>> result_value("CCc1c(N=Nc2cc(C(=O)O)ccc2C(=O)O)c(O)n(CCNC(=O)c2cc(C(=O)O)c(C(=O)NCCn3c(O)c(N=Nc4cc(C(=O)O)ccc4C(=O)O)c(CC)c(C#N)c3=O)cc2C(=O)O)c(=O)c1C#N")
"⊚⊚"
>>> result_value("Cc1c(N=Nc2cc(C(=O)O)ccc2C(=O)O)c(O)[nH]c(=O)c1C#N")
"⊚"
>>> result_value("C[N+](C)(C)C.C[N+](C)(C)C.Cc1c(N=Nc2cc(C(=O)[O-])ccc2C(=O)[O-])c(O)[nH]c(=O)c1C#N")
"♯"

Problem: # lookup: (A)-2 light fastness-2 of "Cc1c(N=Nc2cc(C(=O)O)ccc2C(=O)O)c(O)n(CCNC(=O)c2cc(C(=O)O)c(C(=O)NCCn3c(O)c(N=Nc4cc(C(=O)O)ccc4C(=O)O)c(C)c(C#N)c3=O)cc2C(=O)O)c(=O)c1C#N"
Result: ⊚

Problem: # lookup: (A)-2 light fastness-2 of "Cc1c(N=Nc2cc(C(=O)O)ccc2C(=O)O)c(O)n(CCNc2nc(Cl)nc(NCCn3c(O)c(N=Nc4cc(C(=O)O)ccc4C(=O)O)c(C)c(C#N)c3=O)n2)c(=O)c1C#N"
Result: ◯
